Tested on: P. aeruginosa MB9798 (efflux+, IMP-1 plasmid)
Test settings: fold difference between efflux+ (MB9798) and efflux− (MB9799) strains
Counter-ions that a name gives are not always drawn.
// reported Efflux ratio per item
Measure name: Efflux ratio

compound="NS(=O)(=O)c1c(S(=O)(=O)N[C@@H]2CCNC2)ccc(N2CCC(C(F)F)CC2)c1-c1nnn[nH]1 [Example 90]" reported=4.00
compound="NC[C@@H](O)CNS(=O)(=O)c1ccc(N2CCC(C(N)CO)CC2)c(-c2nn[nH]n2)c1S(N)(=O)=O (single isomer, unassigned) [Example 181]" reported=1.00
compound="NCC1CCCN(c2ccc(S(=O)(=O)NC[C@H](O)CN)c(S(N)(=O)=O)c2-c2nn[nH]n2)CC1 (stereo partly shown) [Example 139, trifluoroacetate]" reported=2.00
compound="NC[C@@H](O)CNS(=O)(=O)c1ccc(Nc2ncc[nH]2)c(-c2nn[nH]n2)c1S(N)(=O)=O [Example 203]" reported=2.00
compound="NC[C@@H](O)CNS(=O)(=O)c1ccc(N2CC[C@H](N)C2)c(-c2nn[nH]n2)c1S(N)(=O)=O [Example 126]" reported=2.00
compound="C[C@H](CN)NS(=O)(=O)c1ccc(N2CC[C@@H](CN)[C@@H](F)C2)c(-c2nn[nH]n2)c1S(N)(=O)=O (racemic) [Example 8]" reported=2.00
compound="NC[C@@H](O)CNS(=O)(=O)c1ccc(N2CC[C@H](CN)C2)c(-c2nn[nH]n2)c1S(N)(=O)=O [Example 124]" reported=2.00
compound="NC[C@H](N)CNS(=O)(=O)c1ccc(N2CCC(CO)CC2)c(-c2nnn[nH]2)c1S(N)(=O)=O [Example 44]" reported=2.00
compound="NC[C@@H]1CCN(c2ccc(S(=O)(=O)N[C@@H]3CCNC3)c(S(N)(=O)=O)c2-c2nn[nH]n2)C[C@@H]1F (racemic) [Example 7]" reported=2.00
compound="CN1CCN(c2ccc(S(=O)(=O)N[C@@H]3CCNC3)c(S(N)(=O)=O)c2-c2nnn[nH]2)CC1=O [Example 65]" reported=2.00
compound="NCC(O)C1CCN(c2ccc(S(=O)(=O)NC[C@H](O)CN)c(S(N)(=O)=O)c2-c2nn[nH]n2)CC1 (stereo partly shown) [Example 132]" reported=1.00
compound="NS(=O)(=O)c1c(S(=O)(=O)C2CNC2)ccc(N2CCC[C@H](O)C2)c1-c1nnn[nH]1 [Example 60]" reported=4.00
compound="NS(=O)(=O)c1c(S(=O)(=O)C2CNC2)ccc(N2CCN(CCCO)CC2)c1-c1nnn[nH]1 [Example 53]" reported=4.00
compound="NCCN1CCN(c2ccc(S(=O)(=O)NC[C@H](O)CN)c(S(N)(=O)=O)c2-c2nn[nH]n2)CC1=O [Example 147]" reported=4.00
compound="NS(=O)(=O)c1c(S(=O)(=O)C2CNC2)ccc(N2CC[C@H](CO)[C@H](F)C2)c1-c1nnn[nH]1 [Example 61]" reported=4.00
compound="NS(=O)(=O)c1c(S(=O)(=O)N[C@@H]2CCNC2)ccc(N2CCC(CO)CC2=O)c1-c1nn[nH]n1 (stereo partly shown) [Example 157]" reported=1.00
compound="NCC(=O)N1CCN(c2ccc(S(=O)(=O)NC[C@H](O)CN)c(S(N)(=O)=O)c2-c2nn[nH]n2)CC1 [Example 119]" reported=2.00
compound="NC[C@@H](O)CNS(=O)(=O)c1ccc(N2C[C@@H]3[C@@H](CN)[C@@H]3C2)c(-c2nn[nH]n2)c1S(N)(=O)=O [Example 11]" reported=4.00
compound="NS(=O)(=O)c1c(S(=O)(=O)N[C@@H]2CCNC2)ccc(N2CCC(S(N)(=O)=O)CC2)c1-c1nnn[nH]1 [Example 80]" reported=1.00
compound="NC[C@@H](O)CNS(=O)(=O)c1ccc(N2CCCN(CCO)CC2)c(-c2nn[nH]n2)c1S(N)(=O)=O [Example 23]" reported=2.00
compound="NS(=O)(=O)c1c(S(=O)(=O)N[C@@H]2CCNC2)ccc(N2CC3(CCNCC3)C2)c1-c1nnn[nH]1 [Example 113]" reported=8.00
compound="C[C@@H](CN)NS(=O)(=O)c1ccc(N2CCC(O)(CN)CC2)c(-c2nn[nH]n2)c1S(N)(=O)=O [Example 18]" reported=1.00
compound="NCCC1CCN(c2ccc(S(=O)(=O)N[C@@H](CN)CO)c(S(N)(=O)=O)c2-c2nn[nH]n2)CC1 [Example 187]" reported=1.00
compound="N[C@@H]1CCCN(c2ccc(S(=O)(=O)C3CNC3)c(S(N)(=O)=O)c2-c2nnn[nH]2)C1 [Example 28]" reported=8.00
compound="NC[C@@H](O)CNS(=O)(=O)c1ccc(N2CCC(n3ccnc3)CC2)c(-c2nnn[nH]2)c1S(N)(=O)=O [Example 174]" reported=2.00
compound="NC(=O)C1CCN(c2ccc(S(=O)(=O)N[C@@H]3CCNC3)c(S(N)(=O)=O)c2-c2nnn[nH]2)C1 (stereo partly shown) [Example 92]" reported=1.00
compound="CC(=O)N[C@@H]1CCN(c2ccc(S(=O)(=O)N[C@@H]3CCNC3)c(S(N)(=O)=O)c2-c2nnn[nH]2)C1 [Example 95]" reported=2.00
compound="NC[C@@H]1CCCN(c2ccc(S(=O)(=O)N[C@@H]3CCNC3)c(S(N)(=O)=O)c2-c2nnn[nH]2)C1 [Example 78]" reported=8.00
